Assay: Drug uptake in Sprague-Dawley rat brain at 50 mg/kg, po after 3 hrs by LC-MS/MS analysis
Type: ADME, organism-based
Settings: read-out: Drug uptake
measured.metric: concentration at 3 h (ng/g)

A: COc1cc(/C=C/C(=O)CC(=O)/C=C/c2ccc(O)c(OC)c2)ccc1O [CURCUMIN]
B: COc1cc(OCc2ccccn2)ccc1/C=C/C(=O)CC(=O)/C=C/c1ccc2cc[nH]c2c1
C: COc1cc(OCc2ccccn2)ccc1/C=C/c1cc(/C=C/c2ccc3cc[nH]c3c2)[nH]n1
Query string: Hey, can you sort those compounds up there by concentration at 3 h, smallest first? Please express your ranking as an ordered list of the labels.
Result string: B, A, C

The reported numbers originate from ChEMBL document CHEMBL3861992.
